# System: MDA-MB-468
# PROTOCOL DESCRIPTION: drug sensitivity score (DSS), CellTiter-Glo (DSS (AUC-based score)); higher = stronger drug effect (viability inhibition or cytotoxicity); extreme values may be limits of the assay
# DETAILS: incubation time: 72 h
PROPERTY LABEL: drug sensitivity score

{"MOLECULE": "C#Cc1cccc(Nc2ncnc3cc(OCCOC)c(OCCOC)cc23)c1", "OBSERVED MEASUREMENT": 0}
{"MOLECULE": "C[C@]12CC[C@@H]3c4ccc(O)cc4C[C@@H](CCCCCCCCC[S+]([O-])CCCC(F)(F)C(F)(F)F)[C@H]3[C@@H]1CC[C@@H]2O (some centres not stated)", "OBSERVED MEASUREMENT": 0}
{"MOLECULE": "O=C(O)c1ccc(-c2c[nH]c3ncc(-c4ccccc4)cc23)cc1C1CCCC1", "OBSERVED MEASUREMENT": 0}
{"MOLECULE": "Cn1c(CCCC(=O)O)nc2cc(N(CCCl)CCCl)ccc21", "OBSERVED MEASUREMENT": 0}
{"MOLECULE": "COc1cc2nccc(Oc3ccc(NC(=O)C4(C(=O)Nc5ccc(F)cc5)CC4)cc3)c2cc1OC [Cabozantinib]", "OBSERVED MEASUREMENT": 0}
{"MOLECULE": "C[C@@H](Oc1cc(-c2cnn(C3CCNCC3)c2)cnc1N)c1c(Cl)ccc(F)c1Cl", "OBSERVED MEASUREMENT": 0.0242}
{"MOLECULE": "COc1cc2ncnc(Nc3ccc(F)c(Cl)c3)c2cc1NC(=O)/C=C/CN1CCCCC1", "OBSERVED MEASUREMENT": 3.31}

---

# Test system: MFM-223
# PROTOCOL DESCRIPTION: normalised viability (% of control), CellTiter-Blue; higher = more viable cells (100 = DMSO, 0 = benzethonium chloride kill control)
# DETAILS: incubation time: 72 h

{"COMPOUND": "Clc1ccc(Nc2nnc(Cc3ccncc3)c3ccccc23)cc1 [Vatalanib] (1 nM)", "normalised viability": "106%"}
{"COMPOUND": "CCC1=C[C@@H]2CN(C1)Cc1c([nH]c3ccccc13)[C@@](C(=O)OC)(c1cc3c(cc1OC)N(C)[C@H]1[C@@](O)(C(=O)OC)[C@H](OC(C)=O)[C@]4(CC)C=CCN5CC[C@]31[C@@H]54)C2 [Vinorelbine] (1 nM)", "normalised viability": "95.6%"}
{"COMPOUND": "Oc1nc(-c2ccc(C(F)(F)F)cc2)nc2c1CSCC2 [XAV-939] (1 nM)", "normalised viability": "107%"}
{"COMPOUND": "CN(N=O)C(=O)N[C@@H](C=O)[C@@H](O)[C@H](O)[C@H](O)CO [Streptozocin] (1 nM)", "normalised viability": "92.8%"}
{"COMPOUND": "CC1(C)NC(=O)N(c2ccc([N+](=O)[O-])c(C(F)(F)F)c2)C1=O [Nilutamide] (1 nM)", "normalised viability": "100%"}
{"COMPOUND": "C#Cc1cccc(Nc2ncnc3cc(OCCOC)c(OCCOC)cc23)c1 [Erlotinib] (1 nM)", "normalised viability": "98.8%"}
{"COMPOUND": "C=C(c1ccc(C(=O)O)cc1)c1cc2c(cc1C)C(C)(C)CCC2(C)C [Bexarotene] (1 nM)", "normalised viability": "99.6%"}

---

Each entry below lists one item and its recorded normalised response value.
# Tested on: MDA-MB-468
# PROTOCOL DESCRIPTION: normalised response (% of control), CellTox Green; higher = less cell death (100 = DMSO, 0 = benzethonium chloride kill control)
# DETAILS: incubation time: 72 h
PROPERTY LABEL: normalised response (%)

{"MOLECULE": "CO[C@H]1/C=C\\C=C(/C)C(=O)NC2=CC(=O)C(NCCN(C)C)=C(C[C@@H](C)C[C@H](OC)[C@H](O)[C@@H](C)/C=C(\\C)[C@@H]1OC(N)=O)C2=O [Alvespimycin] (100 nM)", "ASSAY SYSTEM": "MDA-MB-468", "OBSERVED MEASUREMENT": 104}
{"MOLECULE": "CN[C@@H]1C[C@H]2O[C@@](C)([C@@H]1OC)n1c3ccccc3c3c4c(c5c6ccccc6n2c5c31)C(=O)N[C@H]4O [UCN-01] (100 nM)", "ASSAY SYSTEM": "MDA-MB-468", "OBSERVED MEASUREMENT": 76.9}
{"MOLECULE": "N#CCNC(=O)c1ccc(-c2ccnc(Nc3ccc(N4CCOCC4)cc3)n2)cc1 [Momelotinib] (1000 nM)", "ASSAY SYSTEM": "MDA-MB-468", "OBSERVED MEASUREMENT": 178}
{"MOLECULE": "Cc1ccc(C(=O)N(CCCN)[C@@H](c2oc3cc(Cl)ccc3c(=O)c2Cc2ccccc2)C(C)C)cc1 (100 nM)", "ASSAY SYSTEM": "MDA-MB-468", "OBSERVED MEASUREMENT": 59.9}
{"MOLECULE": "N#CCNC(=O)c1ccc(-c2ccnc(Nc3ccc(N4CCOCC4)cc3)n2)cc1 [Momelotinib] (100 nM)", "ASSAY SYSTEM": "MDA-MB-468", "OBSERVED MEASUREMENT": 168}
{"MOLECULE": "N.N.[Cl][Pt][Cl] [Cisplatin] (100 nM)", "ASSAY SYSTEM": "MDA-MB-468", "OBSERVED MEASUREMENT": 94.6}
{"MOLECULE": "CN(N=O)C(=O)N[C@@H](C=O)[C@@H](O)[C@H](O)[C@H](O)CO [Streptozocin] (100 nM)", "ASSAY SYSTEM": "MDA-MB-468", "OBSERVED MEASUREMENT": 124}
{"MOLECULE": "CCCCCCCCCCCCCCCCCCOP(=O)([O-])OC1CC[N+](C)(C)CC1 [Perifosine] (25 nM)", "ASSAY SYSTEM": "MDA-MB-468", "OBSERVED MEASUREMENT": 95.6}
{"MOLECULE": "N[C@@H](CSC(c1ccccc1)(c1ccccc1)c1ccccc1)C(=O)O [S-trityl-L-cysteine] (40000 nM)", "ASSAY SYSTEM": "MDA-MB-468", "OBSERVED MEASUREMENT": 124}
{"MOLECULE": "C=C(c1ccc(C(=O)O)cc1)c1cc2c(cc1C)C(C)(C)CCC2(C)C [Bexarotene] (1000 nM)", "ASSAY SYSTEM": "MDA-MB-468", "OBSERVED MEASUREMENT": 111}
{"MOLECULE": "Clc1ccc(Nc2nnc(Cc3ccncc3)c3ccccc23)cc1 [Vatalanib] (1000 nM)", "ASSAY SYSTEM": "MDA-MB-468", "OBSERVED MEASUREMENT": 138}

---

# System: CAL-148
# PROTOCOL DESCRIPTION: normalised viability (% of control), CellTiter-Blue; higher = more viable cells (about 100 = DMSO control)
# DETAILS: 10 nM; incubation time: 72 h
Each entry below lists one item and its recorded normalised viability value.
PROPERTY LABEL: normalised viability (%)

{"COMPOUND": "C=C(c1ccc(C(=O)O)cc1)c1cc2c(cc1C)C(C)(C)CCC2(C)C", "OBSERVED MEASUREMENT": 101}
{"COMPOUND": "CC(C)Cn1cnc2c(N)nc3ccccc3c21", "OBSERVED MEASUREMENT": 105}
{"COMPOUND": "Oc1nc(-c2ccc(C(F)(F)F)cc2)nc2c1CSCC2", "OBSERVED MEASUREMENT": 92.6}
{"COMPOUND": "CCC1(c2ccc(N)cc2)CCC(=O)NC1=O (stereo not given) [Aminoglutethimide]", "OBSERVED MEASUREMENT": 99.1}
{"COMPOUND": "CN(N=O)C(=O)N[C@@H](C=O)[C@@H](O)[C@H](O)[C@H](O)CO", "OBSERVED MEASUREMENT": 99.6}

---

# Tested on: CAL-148
# PROTOCOL DESCRIPTION: normalised response (% of control), CellTox Green; higher = less cell death (100 = DMSO, 0 = benzethonium chloride kill control)
# DETAILS: incubation time: 72 h
Each entry below lists one item and its recorded normalised response value.

{"MOLECULE": "Cc1ccc(-n2nc(C(C)(C)C)cc2NC(=O)Nc2ccc(OCCN3CCOCC3)c3ccccc23)cc1 [Doramapimod] (100 nM)", "normalised response (%)": 100}
{"MOLECULE": "Cc1ccc(C(=O)N(CCCN)[C@@H](c2oc3cc(Cl)ccc3c(=O)c2Cc2ccccc2)C(C)C)cc1 (100 nM)", "normalised response (%)": 106}
{"MOLECULE": "CO[C@H]1/C=C\\C=C(/C)C(=O)NC2=CC(=O)C(NCCN(C)C)=C(C[C@@H](C)C[C@H](OC)[C@H](O)[C@@H](C)/C=C(\\C)[C@@H]1OC(N)=O)C2=O [Alvespimycin] (1000 nM)", "normalised response (%)": 45.8}
{"MOLECULE": "CS(=O)(=O)c1ccc(C2=C(c3ccccc3)C(=O)OC2)cc1 [Rofecoxib] (1000 nM)", "normalised response (%)": 105}
{"MOLECULE": "N#CCNC(=O)c1ccc(-c2ccnc(Nc3ccc(N4CCOCC4)cc3)n2)cc1 [Momelotinib] (100 nM)", "normalised response (%)": 97.8}
{"MOLECULE": "CC(C)Cn1cnc2c(N)nc3ccccc3c21 [Imiquimod] (250 nM)", "normalised response (%)": 76.8}
{"MOLECULE": "CCC(C)(C)C(=O)O[C@H]1C[C@@H](C)C=C2C=C[C@H](C)[C@H](CC[C@@H]3C[C@@H](O)CC(=O)O3)[C@H]21 [Simvastatin] (10000 nM)", "normalised response (%)": 104}
{"MOLECULE": "CC(=O)Nc1ccc(C(=O)Nc2ccccc2N)cc1 [Tacedinaline] (1000 nM)", "normalised response (%)": 97.9}
